System: Staphylococcus aureus
Test: Antibacterial activity against Staphylococcus aureus ATCC 6538 after 24 hr by microdilution test
Assay type: functional
Settings: ATCC 6538, 24 h
Mark yes for MIC under 50 µM, no if at or over.

Cc1ccc(/C=C2\S/C(=N/c3nccs3)NC2=O)cc1; yes
O=C1N/C(=N\c2nccs2)S/C1=C\c1c(Cl)cccc1Cl; yes
CC1(C)S[C@@H]2[C@H](NC(=O)[C@H](N)c3ccccc3)C(=O)N2[C@H]1C(=O)O [AMPICILLIN]; no
CN(C)c1ccc(/C=C2\S/C(=N/c3nccs3)NC2=O)cc1; yes
Cc1csc(/N=C2\NC(=O)/C(=C/c3ccccc3Cl)S2)n1; no

IN: Find out if reported MIC for Cc1csc(/N=C2\NC(=O)/C(=C/c3ccc(Cl)cc3)S2)n1 is less than 50 µM
OUT: no

IN: Find out if reported MIC for O=C1N/C(=N\c2nccs2)S/C1=C\c1cccc(Cl)c1Cl is less than 50 µM
OUT: no

IN: Find out if reported MIC for O=C1N/C(=N\c2nc(-c3ccccc3)cs2)S/C1=C\c1cccc(Cl)c1 is less than 50 µM
OUT: yes
